Data credit: patent US4440740A

# assay overview: duodenal absorption of cyclic hexapeptide somatostatin analog with phenylglyoxal
# particulars: rat, in vivo, 0.4 mg, pH 5, duodenal, phenylglyoxal 0 mg/ml, 0.4 mg peptide, 250 μl, read-out: Percent Bioavailability
recorded metric: bioavailability (%)
Hi! Could you send only the number? It should be in %, unit omitted.

What measured bioavailability goes with CC(C)[C@@H]1NC(=O)[C@H](CCCCN)NC(=O)[C@@H](Cc2c[nH]c3ccccc23)NC(=O)[C@H](Cc2ccc(O)cc2)NC(=O)[C@H](C)N(C)C(=O)[C@H](Cc2ccccc2)NC1=O [Cyclo-(N-Me-Ala-Tyr-D-Trp-Lys-Val-Phe)] ? 1

* * *

# assay overview: rectal absorption of Ara-C with methylglyoxal or phenylglyoxal
# particulars: in vivo; rectal; Ara-C 1% w/v; adjuvant: none; 0-90 min; read-out: 0 min-90 min (quantity head is drawing 2) of Ara-C (converted)
recorded metric: AUC at 1.5 h

What measured AUC at 1.5 h goes with Nc1ccn([C@@H]2O[C@H](CO)[C@@H](O)[C@@H]2O)c(=O)n1 [Ara-C, reference compound] ? 1250 ng·h/mL

* * *

# assay overview: rectal absorption of Ara-C with methylglyoxal or phenylglyoxal
# particulars: in vivo; rectal; Ara-C 1% w/v; adjuvant: none
recorded metric: bioavailability

What measured bioavailability goes with Nc1ccn([C@@H]2O[C@H](CO)[C@@H](O)[C@@H]2O)c(=O)n1 [Ara-C, reference compound] ? 13.1%

* * *

# assay overview: duodenal absorption of cyclic hexapeptide somatostatin analog with phenylglyoxal
# particulars: rat, in vivo, 0.4 mg, pH 5, duodenal, phenylglyoxal 25 mg/ml, 0.4 mg peptide, 250 μl, read-out: Percent Bioavailability
recorded metric: bioavailability (%)
Hi! Could you send only the number? It should be in %, unit omitted.

What measured bioavailability goes with CC(C)[C@@H]1NC(=O)[C@H](CCCCN)NC(=O)[C@@H](Cc2c[nH]c3ccccc23)NC(=O)[C@H](Cc2ccc(O)cc2)NC(=O)[C@H](C)N(C)C(=O)[C@H](Cc2ccccc2)NC1=O [Cyclo-(N-Me-Ala-Tyr-D-Trp-Lys-Val-Phe)] ? 20

* * *

# assay overview: rectal absorption of cyclic hexapeptide somatostatin analog with phenylglyoxal
# particulars: rat, in vivo, 0.4 mg, pH 5, rectal, phenylglyoxal 0 mg/ml, 0.4 mg peptide, 250 μl, read-out: Percent Bioavailability
recorded metric: bioavailability (%)
Hi! Could you send only the number? It should be in %, unit omitted.

What measured bioavailability goes with CC(C)[C@@H]1NC(=O)[C@H](CCCCN)NC(=O)[C@@H](Cc2c[nH]c3ccccc23)NC(=O)[C@H](Cc2ccc(O)cc2)NC(=O)[C@H](C)N(C)C(=O)[C@H](Cc2ccccc2)NC1=O ? 7
